Each recorded value in this set is attributed to patent US20240279318A1.

Measured Affinity increase accompanies every entry in the list below.
- target under test: T1, AFP158/HLA-A*02:01 complex (human)
- T1 construct: flowed over the chip in SPR; also called AFP158 pro
- assay name: SPR, KD ratio to AS170036 VL1VH1;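 further: crude scFv captured on a sensor chip, peptide–HLA complex passed over at several concentrations, association then buffer dissociation, KD derived from on- and off-rates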
Value expressed in fold; do not type the unit.

| binder | reading |
| --- | --- |
| LY93W (scFv, AS170036 VL1VH1 scFv mutein) scFv: QSALTQPRSVSGSPGQSVTISCAGTSSDVGSENYVSWYQQHPGKAPKLMIYQVNKRASGVPDRFSGSKSGNTASLTISGLQAEDEADYYCASWRSSDHNIVFGGGTKLTVLGGGGSGGGGSGGGGSEVQLVESGGGLVQPGGSLRLSCAASGFTFSSYAMSWVRQAPGKGLEWVSTINSGTGSPYYADSVKGRFTISRDNSKNTLYLQMNSLRAEDTAVYYCAKNFFDGSWFLGPPAMDYWGQGTLVTVSSHHHHHH | 1 |

Moving on to another binder below.
Sample LD97G (scFv, AS170036 VL1VH1 scFv mutein) scFv: QSALTQPRSVSGSPGQSVTISCAGTSSDVGSENYVSWYQQHPGKAPKLMIYQVNKRASGVPDRFSGSKSGNTASLTISGLQAEDEADYYCASYRSSGHNIVFGGGTKLTVLGGGGSGGGGSGGGGSEVQLVESGGGLVQPGGSLRLSCAASGFTFSSYAMSWVRQAPGKGLEWVSTINSGTGSPYYADSVKGRFTISRDNSKNTLYLQMNSLRAEDTAVYYCAKNFFDGSWFLGPPAMDYWGQGTLVTVSSHHHHHH — what was its Affinity increase? 0.8
